Measured values drawn from patent US10028961B2 for this set.

Biological target: IDH1 wt/IDH1 R132H heterodimer (Homo sapiens (Human), UniProt O75874, R132H)
Sequence (O75874 whole entry R132H): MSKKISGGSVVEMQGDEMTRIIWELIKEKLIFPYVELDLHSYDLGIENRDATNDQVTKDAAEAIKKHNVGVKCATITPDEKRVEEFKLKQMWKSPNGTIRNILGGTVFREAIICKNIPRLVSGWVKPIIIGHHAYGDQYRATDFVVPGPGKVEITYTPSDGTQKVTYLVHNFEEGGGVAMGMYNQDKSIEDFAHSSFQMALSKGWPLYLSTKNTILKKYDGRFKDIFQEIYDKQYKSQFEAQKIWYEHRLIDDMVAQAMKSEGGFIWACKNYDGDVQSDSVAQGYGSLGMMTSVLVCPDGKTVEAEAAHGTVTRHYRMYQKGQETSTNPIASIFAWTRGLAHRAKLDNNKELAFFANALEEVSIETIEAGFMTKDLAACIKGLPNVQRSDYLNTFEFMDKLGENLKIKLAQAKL
Sequence (O75874 whole entry, stated change not applied): as the sequence (O75874 whole entry R132H) above, with H132R counted along it
Experiment: In vitro assay for IDH1m R132H inhibitors, IDH1 wt/IDH1 R132H heterodimer, NADPH depletion (diaphorase/resazurin)
Format: biochemical
Conditions: IDH1 wt/R132H heterodimer, NADPH/NADP, not saturated; read-out: IDH1 wt/R132H NADPH/NADP IC50 not saturated
Metric: IC50

[[record]]
compound = "Cn1ccc(-c2nc(NC3CCC(F)(F)CC3)nc(NC3CCC(F)(F)CC3)n2)n1"
test_system = "IDH1 wt/IDH1 R132H heterodimer (Homo sapiens (Human), UniProt O75874, R132H)"
recorded_value = "> 1000 nM"

[[record]]
compound = "FC1(F)CC(CNc2nc(Nc3ccnc(C(F)(F)F)c3)nc(-c3cccc(C(F)(F)F)n3)n2)C1"
test_system = "IDH1 wt/IDH1 R132H heterodimer (Homo sapiens (Human), UniProt O75874, R132H)"
recorded_value = "< 50 nM"

[[record]]
compound = "FC1(F)CCC(Nc2nc(NC3CCC(F)(F)C3)nc(-c3cccc(C4CC4)n3)n2)C1 (centres unmarked)"
test_system = "IDH1 wt/IDH1 R132H heterodimer (Homo sapiens (Human), UniProt O75874, R132H)"
recorded_value = "100 to 1000 nM"

[[record]]
compound = "FC1(F)CC[C@@H](Nc2nc(Nc3ccnc(C(F)(F)F)c3)nc(-c3cncc(C(F)(F)F)n3)n2)C1"
test_system = "IDH1 wt/IDH1 R132H heterodimer (Homo sapiens (Human), UniProt O75874, R132H)"
recorded_value = "< 50 nM"

[[record]]
compound = "CC(F)(F)c1cccc(-c2nc(NC3CCC(F)(F)C3)nc(NC3CCC(F)(F)C3)n2)n1 (centres unmarked)"
test_system = "IDH1 wt/IDH1 R132H heterodimer (Homo sapiens (Human), UniProt O75874, R132H)"
recorded_value = "< 50 nM"

[[record]]
compound = "Fc1ccc([C@H]2C[C@H](Nc3nc(NC4CCC(F)(F)C4)nc(-c4cccc(C(F)(F)F)n4)n3)C2)cc1 (some centres unmarked)"
test_system = "IDH1 wt/IDH1 R132H heterodimer (Homo sapiens (Human), UniProt O75874, R132H)"
recorded_value = "< 50 nM"

[[record]]
compound = "FC1(F)CCC(Nc2nc(NC3CCC(F)(F)CC3)nc(-c3cccc(C4CC4)n3)n2)CC1"
test_system = "IDH1 wt/IDH1 R132H heterodimer (Homo sapiens (Human), UniProt O75874, R132H)"
recorded_value = "> 1000 nM"

[[record]]
compound = "N#CC1(c2cc(Nc3nc(NC4CCC(F)(F)CC4)nc(-c4cccc(C(F)(F)F)n4)n3)ccn2)CC1"
test_system = "IDH1 wt/IDH1 R132H heterodimer (Homo sapiens (Human), UniProt O75874, R132H)"
recorded_value = "< 50 nM"

